Tested on: UACC-62
MEASUREMENT DESCRIPTION: NCI-60 growth inhibition (sulforhodamine B)
Format: cell-based, human
TEST CONTEXT: Homo sapiens; UACC-62 (Melanoma); negative log of Molar conc.; LCONC -8; read-out: IC50 NLOGVALUE

>  <COMPOUND>
C[C@H](CN[C@@H](C(=O)Nc1ccc(-c2cnn(C)c2)cn1)c1ccccc1)c1ccc(C#N)cc1 [CPI-1612]

>  <IC50>
> 100 µM

$$$$
